Test system: S. enterica typhimurium tolC KO;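 further: active when median AUC fell below 0.1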
EXPERIMENT: growth AUC normalised to DMSO control (median) (fraction of control); higher = less growth inhibition, active = hit call of the paper
ASSAY CONDITIONS: 20 µM
Quick reference for growth AUC normalised to DMSO control among some molecules

MOLECULE | STUDY SYSTEM | growth AUC normalised to DMSO control
COC(=O)[C@H](c1ccccc1Cl)N1CCc2sccc2C1 | S. enterica typhimurium tolC KO | 0.914
COc1ccc(CC2c3cc(OC)c(OC)cc3CC[N+]2(C)CCC(=O)OCCCCCOC(=O)CC[N+]2(C)CCc3cc(OC)c(OC)cc3C2Cc2ccc(OC)c(OC)c2)cc1OC (centres undefined) [Atracurium besylate] | S. enterica typhimurium tolC KO | 1.01
COc1c(-c2ccc3cc(NS(C)(=O)=O)ccc3c2)cc(-n2ccc(=O)[nH]c2=O)cc1C(C)(C)C | S. enterica typhimurium tolC KO | 0.94
O=C(O[C@@H]1C[C@@H]2C[C@H]3C[C@H](C1)N2CC3=O)c1c[nH]c2ccccc12 [Dolasetron mesilate] | S. enterica typhimurium tolC KO | 0.984
